Reported growth inhibition values for the following compounds.
assay: NCI Yeast Anticancer Drug Screen. Data for the mec2-1 strain (AID 157); conditions: S. cerevisiae mec2-1 strain, at 5.0 µM (retest, dose inferred, filed as 0.5), stronger effect = higher value
This is part of a sample that, as a whole, favours compounds with a hit. Of some 79,000 tested, about 15% had one in any assay.
result type: growth inhibition (%)

# compound, recorded number
records = [
    ("N#CC1CCCC(Cc2ccccc2)(c2ccccc2)C1=O (stereo not given)", -3),
    ("O=C1OC2(CCCCC2)OC(=O)C1=Cc1ccc([N+](=O)[O-])s1", 6),
    ("O=c1cccccc1[O-].O=c1cccccc1[O-].O=c1cccccc1[O-].[Ce+3]", 20),
    ("COc1ccc(C(=O)c2ccc([N+](=O)[O-])cc2)cc1", 7),
    ("Cc1[nH]c(=O)[nH]c(=S)c1C(=O)NC1C2CCCCC2NC2CCCCC21 (stereo not given)", 49),
    ("Cc1ccccc1Oc1ccccc1N", -26),
    ("CCOC(=O)c1[nH]cc(C)c1-c1ccc2c(-c3ccccc3)nc3ccccc3n12", 7),
    ("Nc1ccccc1Sc1ccccc1", 26),
    ("COc1ccc(C23OCCN2C(=O)c2ccccc23)cc1 (stereo not given)", -15),
    ("CCCCCCCCc1ccc2c3ccccc3c3ccccc3c2c1", -19),
    ("Cc1ccccc1C1c2c(C)cccc2C(=O)CC1CC(=O)O (stereo not given)", 1),
    ("O=C(O)CCC(=O)NNc1ccccc1", -1),
    ("Oc1ccc(CCCCCc2ccc(O)cc2)cc1", 15),
    ("Cc1cccc2c1Oc1ccccc1C2N1C(=O)/C(=C/c2ccccc2Cl)SC1=S (stereo not given)", 99),
    ("CC(=O)Nc1[c-]cccc1.CC(=O)Nc1[c-]cccc1.CC(=O)O.CC(=O)O.[Pd].[Pd]", -1),
    ("COc1ccc(-c2n[nH]c(C(F)(F)F)c2N=NN(C)C)cc1OC", 99),
    ("Cc1cc(NCCCCCCNc2cc(C)nc3cc(N(C)C)ccc23)c2ccc(N(C)C)cc2n1", 0),
    ("CC1=C(C(=O)OCCc2ccc([N+](=O)[O-])cc2)C(c2ccccc2[N+](=O)[O-])C(C(=O)OC(C)C)=C(C)N1 (stereo not given)", 13),
    ("O=C(c1ccccc1)c1c(CO[N+](=O)[O-])n([O-])c2ccccc2[n+]1=O", 14),
    ("COc1ccc2c(c1)N=C(N)n1c(nc3ccccc31)S2", -6),
    ("CC(=O)C(=C(I)I)c1ccccc1", -21),
    ("ClC/C=C/c1ccccc1", -1),
    ("O=C(O)/C(Cl)=C(/Cl)C(=O)Nc1cccc(Cl)c1", 50),
    ("c1ccc(CCN(Cc2nc3ccccc3[nH]2)Cc2nc3ccccc3[nH]2)cc1", -3),
    ("Cc1cccc(/C=N/NC(=S)Nc2ccccc2)n1", -49),
    ("CCc1cccc(C)c1N1C(=O)C(=O)C(c2nc3ccccc3o2)/C(=N\\NS(=O)(=O)c2ccc(C)cc2)C1=O (stereo not given)", 15),
    ("Cc1ccc(/C=N/NS(=O)(=O)c2ccccc2)c(C)c1", -10),
    ("COC(=O)C1C2CC3c4[nH]c5cc(OC)c(Br)cc5c4CCN3CC2CC(OC(=O)c2cc(OC)c(OC)c(OC)c2)C1OC (stereo not given)", -4),
    ("Cc1cnc2c(c1C)C(=O)c1ccccc1C2=O", 26),
    ("Cc1nc(N)nn1C", 0),
    ("C=C1CC(C)(COc2ccc3c(C)c(Cl)c(=O)oc3c2)OC1=O (stereo not given)", 2),
    ("CC1(C)CC(O)C(O)C1 (stereo not given)", 2),
    ("COC(=O)CCC(=O)NCCc1ccc2c([nH]c3ccccc32)c1C", 5),
    ("C=C1C(=O)O[C@@H]2CC(CO)=C([C@@H](C)CCCO)[C@@H](OC(=O)/C(C)=C\\C)[C@H]12", 5),
    ("Cc1cccc(O)c(=O)c1", -5),
]

----------
assay: NCI Yeast Anticancer Drug Screen. Data for the bub3 strain (AID 167); details: S. cerevisiae bub3 mutant strain, at 50.0 µM, stronger effect = higher value
Compounds without any hit were thinned out: in the full panel of roughly 79,000, 15% have a hit.
Below, each of the compounds is paired with its reported growth inhibition value.
result type: growth inhibition (%)

# compound, recorded number
records = [
    ("O=[N+]([O-])c1ccc(-c2nc(/C=N/N3CCCCC3)cs2)o1", 15.2),
    ("N#Cc1ccc(C2Oc3ccc(Cl)cc3C=C2[N+](=O)[O-])cc1 (stereo unspecified)", 75.6),
    ("C/C(=C\\N1CCN(c2ccc(Cl)cc2)C(C)C1)C(=O)c1ccccc1 (stereo unspecified)", 24.9),
    ("O=C1C=C(c2ccccc2)S(=O)(=O)c2c(O)cccc21", 99.2),
    ("C(#Cc1ccccc1)Sc1ccccc1", -30.8),
    ("COc1c2c3c(ccnc3c3ccccc13)C(=O)N2C", 75.6),
    ("CC(C)(C)c1ccc(C(=O)C[n+]2ccc(Cl)c3ccc(Cl)cc32)cc1", -1.75),
    ("COc1ccc2nc(-c3ccc(Cl)cc3)[nH]c2c1", 94.2),
    ("COc1ccc2c(c1)CC/C(=C\\c1ccc(OCCN(C)C)cc1)C2=O", 20.4),
    ("CC(=O)Oc1ccc(Cl)cc1Cc1cc(Cl)ccc1OC(C)=O", 94.5),
    ("N#Cc1ccccc1[N+](=O)[O-]", 61.4),
    ("CCCCCCCCCCCCCCCCCCSSCCCCCCCCCCCCCCCCCC", 15.6),
    ("CCCCCCCCCCCCNC(=O)C[n+]1cccc(C(=O)N(C)C)c1", 3.35),
    ("CCCCCCOC(=O)CCC(=O)OCCCCCC", 63.8),
    ("COc1ccc2c(Cc3ccc(Cl)cc3)cncc2c1O", 99),
    ("O/N=C1\\c2ccccc2-c2ccc(Cl)cc21", 74.3),
    ("NC(=O)c1ccccc1C(=O)O", 0.6),
    ("S=c1c2cn[nH]c2nc2scc(-c3ccc(Cl)cc3)n12", 49),
    ("CCN(CC)CCCC(C)Nc1cc(F)cc2cccnc12 (stereo unspecified)", 88.3),
    ("CC(C)N(CCOc1ccc(/C=C/c2ccccc2)cc1)C(C)C", 75.8),
    ("Cc1cccc(Cl)c1NC(=S)Nc1cccc(C(F)(F)F)c1", 89.6),
]

----------
assay: NCI Yeast Anticancer Drug Screen. Data for the sgs1 mgt1 strain (AID 161);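 note: 0% = growth of cultures given vehicle only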; details: S. cerevisiae sgs1 mgt1 strain, at 5.0 µM (retest, dose inferred, filed as 0.5), stronger effect = higher value
This is part of a sample that, as a whole, favours compounds with a hit. Of some 79,000 tested, about 15% had one in any assay.
Listed here: items and their measured growth inhibition.
result type: growth inhibition (%)

# molecule, readout units, recorded number
rows = [
    ("Oc1ccccc1C1N(Cc2ccc(Cl)cc2)CCN1Cc1ccc(Cl)cc1", "%", 20),
    ("CC(C)(C)c1ccc(C(=O)C[n+]2ccc(Cl)c3ccc(Cl)cc32)cc1", "%", 0),
    ("N=C(N)Sc1ccc([N+](=O)[O-])cc1Cl", "%", 56),
    ("CCN(CCO)CC1OC(OC)C2OC(C)(C)OC12 (stereo not drawn)", "%", -2),
    ("O=S(=O)(c1ccccc1)n1cc(C[P+](c2ccccc2)(c2ccccc2)c2ccccc2)c2ccccc21", "%", 20),
    ("CCCCCCCCCCCCCCCC(=O)N1CCOCC1", "%", -4),
    ("O=Cc1[nH]c(=S)[nH]c(=O)c1CCCc1ccccc1", "%", 15),
    ("C[n+]1c2ccc(Cl)cc2nc2cc(-c3ccccc3)ccc21", "%", 32),
    ("Cc1ccccc1NC(=O)C1C(=O)N(c2ccccc2C)C(=O)/C1=N/O (stereo not drawn)", "%", -4),
    ("CC(=O)N1C/C(=C\\c2ccccc2)C(=O)/C(=C/c2ccccc2)C1", "%", 46),
    ("O=C1CCCCC1=C(I)I", "%", 13),
    ("Clc1ccc2nc3c(c(N4CCCCC4)c2c1)CCCC3", "%", 13),
    ("OC1(c2ccccc2)c2ccccc2Sc2ccccc21", "%", 3),
    ("Nc1ccc(-c2cccc(-c3ccccc3)c2)cc1", "%", -11),
    ("CC(C)(C)C(=O)CC(=O)C(F)(F)C(F)(F)C(F)(F)F.CC(C)(C)C(=O)CC(=O)C(F)(F)C(F)(F)C(F)(F)F.CC(C)(C)C(=O)CC(=O)C(F)(F)C(F)(F)C(F)(F)F.[Er]", "%", 43),
    ("N#CC1C2CCC3(CC2CCN1C(=O)c1ccccc1)OCCO3 (stereo not drawn)", "%", -6),
    ("COc1ccc(C(=O)c2ccc([N+](=O)[O-])cc2)cc1", "%", 3),
    ("COc1ccc(/C=C/c2cc(OC)c(OC)c(OC)c2)cc1O[Si](C)(C)C(C)(C)C", "%", -1),
    ("O=C(Nc1ccc(C2=NCCN2)cc1)c1cc(C(=O)Nc2ccc(C3=NCCN3)cc2)cc(C(=O)Nc2ccc(C3=NCCN3)cc2)c1", "%", 16),
    ("CCCCSc1nc2c([nH]1)c(=S)n(C)c(=S)n2C", "%", 12),
    ("Cc1ccc(S(=O)(=O)NNC2Oc3cc4c(cc3C(c3ccccc3O)C2C)OCO4)cc1 (stereo not drawn)", "%", -2),
    ("CCCOC(=O)C(Br)C(Br)C(=O)OCCC (stereo not drawn)", "%", 36),
    ("Cc1cc2c(c3c1C(=O)CC3)C(C)(C)CC2(C)C", "%", 1),
    ("O=[N+]([O-])c1ccc(Cl)c(C(Nc2nncs2)Nc2nncs2)c1", "%", -3),
    ("COc1cccc(N2CCN(CC(O)COc3cc4c(c5c3CCCC5)CCCC4)CC2)c1 (stereo not drawn)", "%", 34),
    ("O=C1c2ccccc2C(=O)[C@@]23O[C@@]12C1(Oc2cccc4cccc(c24)O1)[C@@H]1O[C@@H]1[C@@H]3O", "%", 62),
    ("Oc1ccc2cc(Br)ccc2c1", "%", 2),
    ("COc1cc(C(=O)C2OC2c2ccc(Cl)cc2)c([N+](=O)[O-])cc1OC (stereo not drawn)", "%", 24),
    ("CC(C)[C@@H]1CC[C@@H](C)C[C@H]1OC(=O)NN", "%", -8),
    ("CCCCC(CC)CNc1ncnc2c1cnn2C (stereo not drawn)", "%", 1),
    ("COc1cc2c(cc1C(C)C)CCC1C(C)(C#N)CCCC21C (stereo not drawn)", "%", -11),
    ("CC(C)(C)c1ccc(Br)c(CCC(=O)NO)c1", "%", -15),
    ("O=c1[nH]cnc2nc(I)[nH]c12", "%", -5),
    ("C/C(CCn1[nH]c(=O)ccc1=O)=N\\NS(=O)(=O)c1ccc(C)cc1", "%", 0),
    ("O=[N+]([O-])C12CCCCC1([N+](=O)[O-])CCCC2 (stereo not drawn)", "%", -3),
    ("O=C(Cc1ccccc1)NNc1nc(NNC(=O)c2ccncc2)nc(Nc2ccccc2)n1", "%", 12),
    ("O=c1oc2ccccc2c(O)c1C1=N/C(=N/N=C/c2ccc(Cl)cc2)SC1", "%", -3),
    ("COC(=O)c1nc(=S)[nH]c(C(=O)OC)c1C(=O)c1c(C)[nH]c2ccccc12", "%", 2),
]
